substances and their reported MIC
Tested on: S. typhimurium 7731
Assay type: cell-based, Salmonella typhimurium
Details: 7731, 24 h
Experimental: The antimicrobial activities of the peptides were measured using a method adapted from the National Committee for Clinical Laboratory Standards (NCCLS) with some modifications ([Chou et al., 2016]). The specific procedure for these assays has been previously described. […] After incubation for 24 h at 37°C, the MICs were determined to be the lowest peptide concentration that inhibited 95% of the bacterial growth by monitoring the absorbance at 492 nm using a microplate reader. […]
Where no end group is shown, it is not given here.
Numeric only. Scale: µM

LRRLRLRLL-NH2 [L3]
32
RLLLLRRLR-NH2 [L10]
64
WWRWWRRRW-NH2 [W1]
4

Supply MIC value. Item: WWWRRRRWW-NH2 [W4]
8

Supply MIC value. Item: RRLLLRLRL-NH2 [L8]
32

Supply MIC value. Item: RWRWRWRWW-NH2 [W5]
4

Supply MIC value. Item: WRRWRWWRW-NH2 [W12]
8

Supply MIC value. Item: RRWWWRWRW-NH2 [W8]
4

Supply MIC value. Item: LLRLRRRLL-NH2 [L2]
64

Supply MIC value. Item: RLRLRLRLL-NH2 [L5]
4

Supply MIC value. Item: RLRLRRLLL-NH2 [L9]
64

Supply MIC value. Item: RRWWWWRRW-NH2 [W7]
16

Supply MIC value. Item: RWRWRRWWW-NH2 [W9]
4

Supply MIC value. Item: LLRLLRRRL-NH2 [L1]
16

Supply MIC value. Item: WRRWRWRWW-NH2 [W3]
8

Supply MIC value. Item: RWWWWRRWR-NH2 [W10]
4

Supply MIC value. Item: WWRWRRRWW-NH2 [W2]
4

Supply MIC value. Item: WRRRRWWWW-NH2 [W11]
8

Supply MIC value. Item: WRRRWWWWR-NH2 [W6]
8

----------
substances and their reported log10(MBC)
Test system: E. coli K88
Settings: value in brackets; >99.9% of cells killed
Where no end group is shown, it is not given here.
Could you please treat all values as log10 of MBC in µM?

// worked examples, log10(MBC) included
LRRLRLRLL-NH2 [L3]
1.20
RLRLRRLLL-NH2 [L9]
1.51

Supply log10(MBC) value. Item: RRLLLRLRL-NH2 [L8]
0.90

Supply log10(MBC) value. Item: RLLLLRRLR-NH2 [L10]
1.81

Supply log10(MBC) value. Item: LRRRRLLLL-NH2 [L11]
1.81

Supply log10(MBC) value. Item: LRRLRLLRL-NH2 [L12]
1.51

Supply log10(MBC) value. Item: RRLLLLRRL-NH2 [L7]
1.81

Supply log10(MBC) value. Item: LLRLLRRRL-NH2 [L1]
1.20

Supply log10(MBC) value. Item: LLRLRRRLL-NH2 [L2]
1.51

Supply log10(MBC) value. Item: LRRRLLLLR-NH2 [L6]
2.11

Supply log10(MBC) value. Item: RLRLRLRLL-NH2 [L5]
0.60

----------
Test system: S. pullorum 7913
Type: cell-based, Salmonella pullorum
Settings: 7913, 24 h
Where no end group is shown, it is not given here.
readout: MBC

// worked examples, MBC included
WWRWRRRWW-NH2 [W2]
8 µM
RRWWWRWRW-NH2 [W8]
4 µM
WRRRRWWWW-NH2 [W11]
8 µM

Supply MBC value. Item: RRLLLRLRL-NH2 [L8]
16 µM

Supply MBC value. Item: RWRWRRWWW-NH2 [W9]
8 µM

Supply MBC value. Item: RWRWRWRWW-NH2 [W5]
4 µM

Supply MBC value. Item: WWRWWRRRW-NH2 [W1]
8 µM

Supply MBC value. Item: WRRWRWWRW-NH2 [W12]
8 µM

Supply MBC value. Item: LLRLLRRRL-NH2 [L1]
16 µM

Supply MBC value. Item: RRWWWWRRW-NH2 [W7]
8 µM

Supply MBC value. Item: RLRLRRLLL-NH2 [L9]
64 µM

Supply MBC value. Item: LRRLRLRLL-NH2 [L3]
16 µM

Supply MBC value. Item: RLRLRLRLL-NH2 [L5]
4 µM

Measured values drawn from paper PMC7725003 for this set.
